# procedure.details: folding stability dG unfold from trypsin proteolysis; higher = more stable
measurement.kind: folding stability dG unfold (kcal/mol)
Please give a number only; it is taken to be in kcal/mol.

{"chain": "SAGGSAGGSAGGFIPEDGHPDETVQLTTSLTLTTSYTLPNGETVTETHTVPVLFTYKVPSAGGSAGGSAGGS [r10_1135_TrMRF]", "folding stability dG unfold, kcal/mol": 0.433}
{"chain": "SAGGKTVEVEFEAPESLSPEEIAAAILAAAPPGYFVKVEEVEVRDRPDGEKVILYKATFYDPDTGDFDSAGG [r13_12_TrMRF]", "folding stability dG unfold, kcal/mol": 2.72}

Exam item: Note down folding stability dG unfold recorded for SAGGKTIWIFFPPDNPEEFLEELAQLPNVTDVEVWRHNDYYMIEIRLEGLPIEIHYNPEGYYMIEIELSAGG [r13_907_TrROS]
Marked response: 2.39

###

Overview of recorded folding stability dG unfold for various sequences
# procedure.details: folding stability dG unfold from trypsin proteolysis; higher = more stable
Write down the numeric answer in kcal/mol and omit the unit.

{"chain": "SAGGSAGGSANAKIPDGQKVTLDFRVMIMMRMWQFDENGGKMEPRMMMIPIEVEIEIKIPPNASAGGSAGGS [r12_668_TrROS]", "observed.result": 3.46}
{"chain": "SKLKIEDIKWNPNYPGMYEFKIKLPDKPATIQIPHDPNNGRFMMEIWYPDKPVTVQFDSWDDALAFIKELSA [r9_366_TrROS]", "observed.result": 1.6}
{"chain": "SAGGSAESIPVDELVELAKKLGLDVTVTPLPETGLVRVEITFTTPDGSKVPATVLVHPDGRTTVFPSAGGSA [r15_1051_TrMRF]", "observed.result": 1.82}

Exam item: Supply folding stability dG unfold value. Item: SAGGETLTVTVLIKNKDEKNKYYKVEVKVTVEKNENGEKTLTIEMKITDKNGNKKTIKVNLKDIKIIDSAGG [r13_787_TrROS_Hall]
Marked response: 2.52

Exam item: Supply folding stability dG unfold value. Item: SAGGSAGGSMVEITFPPDLSEEEAEALAKELEEKYNKKVKITKVPPEIPVPLPQYDPTNWVEVSAGGSAGGS [r12_159_JUSTAS]
Marked response: -0.0502

Exam item: Give folding stability dG unfold for the following sequence: SAGPTVRIRFAGEEEIEVEVGEELEIRLPDGSVVRIRVKPDGTVTVTRPDGSEVELEDVDEVEIEVFPASAG [r5_869_TrROS_Hall]
Marked response: 3.3

###

# procedure.details: folding stability dG unfold (combined trypsin and chymotrypsin); higher = more stable
Lab note: compare folding stability dG unfold against 2 kcal/mol. Equal or greater, write Fulfilled. Smaller, write Not fulfilled.

Completed entries (count: 8):
{"chain": "SAGGSAGGSNIVSARPLGDLVLIEIEPGGKPLRAVVRPSELPPNPPIPPGLSYRVEPGSVSDYSAGGSAGGS [r12_1005_TrMRF]", "class.name": "Not fulfilled"}
{"chain": "SAGGSKIHIPIDPESGNFRIKVYPPDEPKEVSIQFKDPDDPEEFMDRAIEEANEYANNGYRVEIEPSAGGSA [r2_118_TrROS]", "class.name": "Not fulfilled"}
{"chain": "SAGGKNDVKTKTYEIEKDGGKITIEFEKLPDGKYKATVTYPDGKKETLVFDLGEGKEEEFAKEIAKKKSAGG [r13_296_TrMRF]", "class.name": "Fulfilled"}
{"chain": "SAGGSMTEEELEKKAKEIAEELEKKYKEENPNVEVKVTFEVIPEKGIIKITATSPKGKKLKEIIIPLLSAGG [r13_247_JUSTAS]", "class.name": "Fulfilled"}
{"chain": "SMKYRITLTITKGDEDIVVEIETESEEEAKEKFKKAISPELLKALPEDAKVEITVEPEPLVIPEPGVPLPSA [r9_111_JUSTAS]", "class.name": "Not fulfilled"}
{"chain": "SAGGSAGGSAGGSVTYEADEVEIKEFTDPSTGKKYVTVTFPGPGGPVTTTLPADLIEELSAGGSAGGSAGGS [r10_447_JUSTAS]", "class.name": "Not fulfilled"}
{"chain": "SAGGSSIKIEKIEKHENGVKIDISVPDLSNEEEINAVKKKLAEELGLKEEDVEVSLKSENIPLPPSIGSAGG [r13_430_JUSTAS]", "class.name": "Not fulfilled"}
{"chain": "SAGGEIKPGQTVRIRITVYNLETGEEKTIEVEVPAGKTLEEVLAELFDNLSEEERKNLVVRIEIEPVSAGGS [r16_321_TrROS_Hall]", "class.name": "Fulfilled"}

Exam item: Would you say SAGGSAGGSAEPPEVRIRLEVRLLPDGTLEVTAEIEVDGKTYRITVTVDAKTNEIVSVSIEPSAGGSAGGSA [r18_459_TrROS_Hall] shows folding stability dG unfold at minimum 2 kcal/mol?
Marked response: Fulfilled

Exam item: Could you verify whether the entry SAGGRVDVRVERVGEGAVITLLADVEDPEPLVELLEASGLPVELARIEPVRDPVTGRLLVRAVFRVPSAGGS [r16_699_TrMRF] shows folding stability dG unfold of no less than 2 kcal/mol?
Marked response: Not fulfilled

Exam item: Please tell me: is the sequence SAGGIVVGEEGVVRITGPGEPVIIPLPENSEVVEIDVPDDGYVRITLRVDGKTVTVDFPSAPPGLTLSAGGS [r16_635_TrMRF] at or over 2 kcal/mol in terms of folding stability dG unfold?
Marked response: Not fulfilled
